test: Antiproliferative assay in vitro (SRB), BALB3T3; type: cell-based, mouse; conditions: mouse; murine BALB3T3 normal fibroblasts; 96 h exposure; 1 to 100 µg/mL; Neg = negative in the concentration used; read-out: Cytotoxic activity IC50, BALB3T3
Quantity Name: IC50 at 96 h (µg/mL)
Number only, in µg/mL; omit the unit.

The recorded IC50 at 96 h for C=CC(=O)OC[C@]12CC[C@@H](C(=C)C)C1C1CCC3[C@@]4(C)CC[C@H](O)C(C)(C)C4CC[C@@]3(C)[C@]1(C)CC2 (stereo partly shown) [Compound 4, 28-O-(2-Propenoyl)betulin] is 24.3

Briefly, IC50 at 96 h measured for C=C(C)[C@@H]1CC[C@]2(CO)CC[C@]3(C)[C@H](CC[C@@H]4[C@@]5(C)CC[C@H](O)C(C)(C)[C@@H]5CC[C@]43C)[C@@H]12 [Betulin 1, lup-20(29)-ene-3β,28-diol, reference compound] : 47.3

IC50 at 96 h for C=C(C)[C@@H]1CC[C@]2(COC(=O)C#CC)CC[C@]3(C)C(CCC4[C@@]5(C)CC[C@H](O)C(C)(C)C5CC[C@]43C)C12 (stereo partly shown) [Compound 9, 28-O-(2-Butynoyl)betulin] is 17.4

Entry C=C(C)[C@@H]1CC[C@]2(COC(=O)C=CC)CC[C@]3(C)C(CCC4[C@@]5(C)CC[C@H](O)C(C)(C)C5CC[C@]43C)C12 (stereo partly shown) [Compound 8, 28-O-(2-Butenoyl)betulin] ; IC50 at 96 h = 25.6

###

Quantity Name: melting point

Below, each entry is followed by its recorded melting point result.
1) C=C(C)[C@@H]1CC[C@]2(COC(=O)OCC#CC)CC[C@]3(C)C(CCC4[C@@]5(C)CCC(=O)C(C)(C)C5CC[C@]43C)C12 (stereo partly drawn) :: 150 to 152 °C
2) C=C(C)[C@@H]1CC[C@]2(COC(=O)C#CC)CC[C@]3(C)C(CCC4[C@@]5(C)CC[C@H](O)C(C)(C)C5CC[C@]43C)C12 (stereo partly drawn) :: 111 to 113 °C

Let's switch to this compound now.
Record summary for C=C(C)[C@@H]1CC[C@]2(COC(=O)C#Cc3ccccc3)CC[C@]3(C)C(CCC4[C@@]5(C)CCC(=O)C(C)(C)C5CC[C@]43C)C12 (stereo partly drawn) : reported melting point = 82 to 85 °C

###

log10 of IC50 reference
test system: HL-60 (human promyelocytic leukemia); assay: Antiproliferative assay in vitro (MTT), HL-60; assay type: cell-based; conditions: Homo sapiens; HL-60 cancer cell line; 96 h exposure; read-out: Cytotoxic activity IC50, HL-60
# log10 transformed; quantity=IC50; unit=µg/mL

Examples with their reported log10 of IC50 follow.
1) C=C(C)[C@@H]1CC[C@]2(COC(=O)CC)CC[C@]3(C)C(CCC4[C@@]5(C)CC[C@H](O)C(C)(C)C5CC[C@]43C)C12 (some centres unmarked) :: 1.47
2) C=C(C)[C@@H]1CC[C@]2(COC(=O)C#CC3CC3)CC[C@]3(C)C(CCC4[C@@]5(C)CC[C@H](O)C(C)(C)C5CC[C@]43C)C12 (some centres unmarked) :: 1.65
3) C#CC(=O)OC[C@]12CC[C@@H](C(=C)C)C1C1CCC3[C@@]4(C)CC[C@H](O)C(C)(C)C4CC[C@@]3(C)[C@]1(C)CC2 (some centres unmarked) :: -0.52

Quick note, log10 of IC50 for C=CCOC(=O)OC[C@]12CC[C@@H](C(=C)C)C1C1CCC3[C@@]4(C)CC[C@H](O)C(C)(C)C4CC[C@@]3(C)[C@]1(C)CC2 (some centres unmarked) landed at 1.17

Query C#CCOC(=O)OC[C@]12CC[C@@H](C(=C)C)C1C1CCC3[C@@]4(C)CCC(=O)C(C)(C)C4CC[C@@]3(C)[C@]1(C)CC2 (some centres unmarked) yields log10 of IC50 of 1.06
